Data provenance: PubChem BioAssay AID328

- System: BDF1 mice, P388 leukemia ip, median survival T/C
- method-summary: NCI In Vivo Anticancer Drug Screen. Data for tumor model P388 Leukemia (intraperitoneal) in B6D2F1 (BDF1) mice
- condition-context: endpoint: median survival time; dose: 25.0 mg/kg/injection; schedule: Q04DX003 (ip); vehicle: saline with Tween-80
Toxic doses and inconclusive results are not listed. The calls were made as follows: active = survival T/C of 150% or more; inactive = T/C below 125% in these data.
Pick one: label 1 (active), label 0 (inactive)

Which result was noted for this compound in the test: CN(C)CCCN1c2ccccc2Sc2ccc(C(F)(F)F)cc21
label 0

Field: outcome | Entry: ClCCN(CCCl)CCCN1c2ccccc2Sc2ccccc21
label 1

Query: recorded result category for COC(=O)N1c2ccccc2C=CC1C#N (centres undefined) in this test
label 0

I'd appreciate the recorded outcome for CSc1nc([N+](=O)[O-])c2cnccn12 from this test.
label 0

# outcome recorded in this test, key = CC(=O)CC(=O)NCCCN1CCCCC1
label 0

Test call for this compound, please: CC1(C)N=C(N)N=C(N)N1c1ccc(OCCCNC(=O)Nc2cccc(S(=O)(=O)F)c2)c(Cl)c1
label 1

Outcome logged for CC1(c2cccs2)NC(=O)N(Cl)C1=O (centres undefined) in this assay:
label 0

State the result this test recorded for CCCCCCCCCCCCCCCCCC(=O)NN .
label 0

So what was the verdict on Clc1ccc(OCc2sc3ccc(Cl)cc3c2CN2CCCCC2)cc1 in this test?
label 0

Write down the call the test reported for this compound. Item: CCCCC(OC(=O)c1ccccc1)c1cc(OC(=O)c2ccccc2)c2c(c1OC(=O)c1ccccc1)CC(C)=C(C)C2 (centres undefined)
label 0

Would you mind telling me which call this test gave CCOC(=O)CCSc1ccccc1 ?
label 0

I would be grateful if you could indicate the recorded call for CC(=O)CC(C)=O.CC(=O)CC(C)=O.[Co] .
label 0

Which outcome did this test record for the compound Cc1[nH]c(C)c(C(=O)OC2CCN(C)CC2)c1C ?
label 0

Just curious, what result did O=[N+]([O-])CC1CCCCC1O (centres undefined) get here?
label 0

###

Record form. Attribute: T/C. Fill in for each entry.
- Tested on: BDF1 mice, P388 leukemia ip, median survival T/C
- method-summary: NCI In Vivo Anticancer Drug Screen. Data for tumor model P388 Leukemia (intraperitoneal) in B6D2F1 (BDF1) mice
- condition-context: endpoint: median survival time; dose: 50.0 mg/kg/injection; schedule: Q01DX009 (ip); vehicle: saline with Tween-80; higher = longer survival
Toxic doses and inconclusive results are not listed.

Supply T/C measured with BDF1 mice, P388 leukemia ip, median survival T/C for O=C(c1cccs1)c1cccs1 .
101 % of control

Check BDF1 mice, P388 leukemia ip, median survival T/C data and give T/C for COC(=O)/C=C1/C(=O)N(C)c2ccccc21 .
122 % of control

Report measured T/C on BDF1 mice, P388 leukemia ip, median survival T/C; entry: Clc1nc2nsnc2nc1Cl
107 % of control

Name the recorded T/C of CCCCCCOC(=O)/C=C(/C)OCCCCCC , assay system BDF1 mice, P388 leukemia ip, median survival T/C.
100 % of control

Write down the reported T/C (system: BDF1 mice, P388 leukemia ip, median survival T/C) of C1CCC2(CC1)OCCO2
97 % of control

Report T/C from BDF1 mice, P388 leukemia ip, median survival T/C testing of COC(=O)CCC1([N+](=O)[O-])CCCCC1
95 % of control

Give reported T/C for CCC1CN2CCc3cc(OC)c(OC)cc3C2CC1C#N (stereo not given) (BDF1 mice, P388 leukemia ip, median survival T/C)
86 % of control

State recorded T/C with BDF1 mice, P388 leukemia ip, median survival T/C, entry CC(=O)OC1=C2OC(=O)C3(C2C=CC=C1)C1C=CC=CC13 (stereo not given) , no comment.
116 % of control

Give T/C; test system BDF1 mice, P388 leukemia ip, median survival T/C; molecule Clc1nc(Cl)c(Cl)nc1Cl
97 % of control

Specify the recorded T/C for COc1cc(NC(C)CCCN)c2ncccc2c1Oc1ccc(Cl)cc1 (stereo not given) , system: BDF1 mice, P388 leukemia ip, median survival T/C.
100 % of control

State measured T/C of the molecule O=C=Nc1ccc(CCc2ccc(N=C=O)cc2)cc1 with BDF1 mice, P388 leukemia ip, median survival T/C.
110 % of control

Find the measured T/C of Cc1ccc2c(c1)NC(c1ccc(C(=O)O)cc1)c1cccn1-2 (stereo not given) with BDF1 mice, P388 leukemia ip, median survival T/C as test system.
86 % of control

Output reported T/C of the molecule Oc1c(Cl)cc(Cl)cc1C=Nc1cc(C(F)(F)F)ccc1NCc1ccccc1 on BDF1 mice, P388 leukemia ip, median survival T/C.
93 % of control

Lab note: record T/C of CC(=O)OCC1OC(N=[N+]=[N-])C(OC(C)=O)C(OC(C)=O)C1OC(C)=O (stereo not given) tested on BDF1 mice, P388 leukemia ip, median survival T/C.
93 % of control

Provide BDF1 mice, P388 leukemia ip, median survival T/C T/C reading for COc1ccc(C2=C/C(=C3/C(=O)C=C(C)OC3=O)SS2)cc1 .
90 % of control
